molecular target: Human immunodeficiency virus type 1 reverse transcriptase (Human immunodeficiency virus 1); experiment: Inhibition of HIV1 reverse transcriptase RNase H activity using 18-nucleotide 3'-fluorescein-labeled RNA/5'-[…]-labeled DNA hybrid as substrate after 1 hr by fluorescence assay
pIC50: −log10 of the molar value.
I'd be grateful if you could share measured pIC50 for these entries.

Q: Requested read-out: pIC50. Entry: COc1cc(N2CCCC2)c(OC)cc1/C=C1/NC(=O)NC1=O
Ans: 5.03

Q: Entry Cc1cc(/C=C2\SC(N)=NC2=O)c(C)n1-c1ccc(F)cc1 : reported pIC50 = ?
Ans: 4.91

Q: What measured pIC50 goes with Cc1ccc(C2NC(=O)C(O)=C2C(=O)c2cccs2)cc1 (configuration not stated) ?
Ans: < 4.00

Q: Report pIC50 for Cc1ccc(C2CC2C(=O)NN)cc1 (configuration not stated) please.
Ans: < 4.00

Q: # input compound: CC1=C(C(=O)O)N2C(=O)C(NC(=O)c3ccn(C)n3)C2SC1 (configuration not stated) ; wanted: its pIC50
Ans: < 4.00

Q: Give its pIC50 value. Item: CSCCC(NS(=O)(=O)c1ccc2c(c1)NC(=O)C(C)O2)C(=O)O (configuration not stated)
Ans: < 4.00

Q: Could you tell me which pIC50 is on file for CCCCC(CC)CN1C(=O)C(O)=C(C(C)=O)C1c1ccco1 (configuration not stated) ?
Ans: < 4.00

Q: Returns the measured pIC50 for the input compound. Input: CCC(C)Oc1ccc(/C=C2\NC(=O)NC2=O)cc1 (configuration not stated)
Ans: 4.28

Q: Any idea what its pIC50 is? The compound is CCc1nnc(NC(=O)C(=O)NCCOC(=O)c2ccccc2)s1
Ans: < 4.00

Q: # lookup: pIC50 of O=C(OCCOCn1cc(Br)c(=O)[nH]c1=O)c1ccccc1
Ans: < 4.00

Q: Find the recorded pIC50 belonging to CCOc1cccc(/C=C2\SC(=O)NC2=O)c1O and report it.
Ans: < 4.00

Q: Form field: reported pIC50 of O=C(O)CC1CSc2ccccc2NC1=O (configuration not stated)
Ans: < 4.00

====

experiment: Selectivity ratio of IC50 for HIV1 group M subtype B reverse transcriptase p66 N474A mutant RNase H activity to IC50 for HIV1 reverse transcriptase RNase H activity
testReadout: Ratio IC50

Q: Give its Ratio IC50 value. Item: CCOc1cc(/C=C2\SC(=S)N(c3ccccc3)C2=O)cc([N+](=O)[O-])c1O
Ans: 11.4

Q: So what's the measured Ratio IC50 for this one? CC(C)c1ccc(O)c(=O)c(O)c1
Ans: 0.5

Q: Could you share which Ratio IC50 value was measured for COc1cc(N2CCCC2)c(OC)cc1/C=C1/NC(=O)NC1=O ?
Ans: > 32

Q: Ratio IC50 lookup needed for CCOc1ccc(/C=C2\SC(=O)NC2=O)cc1OCc1ccc(Cl)c(Cl)c1 , thanks.
Ans: > 59

====

target: Human immunodeficiency virus type 1 reverse transcriptase (Human immunodeficiency virus 1, UniProt Q72547, R448A); assay: Inhibition of HIV1 group M subtype B reverse transcriptase p66 R448A mutant RNase H activity using 18-nucleotide 3'-fluorescein-labeled RNA/5'-[…]-labeled DNA hybrid as substrate after 1 hr by fluorescence assay
testReadout: IC50
Report as: number unit

Q: What value of IC50 has been reported for the following compound? CCOc1cc(/C=C2\SC(=S)N(c3ccccc3)C2=O)cc([N+](=O)[O-])c1O
Ans: 11.3 µM

Q: Quick one: IC50 for COc1cc(N2CCCC2)c(OC)cc1/C=C1/NC(=O)NC1=O ?
Ans: 11 µM

Q: Give its IC50 value. Item: CCOc1ccc(/C=C2\SC(=O)NC2=O)cc1OCc1ccc(Cl)c(Cl)c1
Ans: 7.01 µM

Q: Item under review: CC(C)c1ccc(O)c(=O)c(O)c1 . Reported IC50?
Ans: 0.14 µM
